molecular target: Acetylcholine receptor (Torpedo californica, UniProt P02710+P02712+P02714+P02718); assay: Inhibition of currents when compound wascoapplied with acetylcholine to recombinant Torpedo nAcChoR (from 6 oocytes); format: cell-based, Oocyte
Sequence (P02710 whole entry): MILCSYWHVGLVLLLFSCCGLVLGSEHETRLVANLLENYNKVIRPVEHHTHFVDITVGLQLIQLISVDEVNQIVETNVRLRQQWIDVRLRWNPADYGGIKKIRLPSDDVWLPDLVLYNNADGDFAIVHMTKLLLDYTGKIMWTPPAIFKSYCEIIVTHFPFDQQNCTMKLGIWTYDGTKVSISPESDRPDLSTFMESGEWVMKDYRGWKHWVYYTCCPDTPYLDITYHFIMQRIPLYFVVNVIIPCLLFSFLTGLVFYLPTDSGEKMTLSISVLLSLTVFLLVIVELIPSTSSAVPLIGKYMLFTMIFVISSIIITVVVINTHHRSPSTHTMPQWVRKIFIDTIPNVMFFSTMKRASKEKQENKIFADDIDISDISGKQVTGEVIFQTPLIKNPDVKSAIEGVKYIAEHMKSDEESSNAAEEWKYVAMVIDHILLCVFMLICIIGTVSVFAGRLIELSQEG
Sequence (P02712 whole entry): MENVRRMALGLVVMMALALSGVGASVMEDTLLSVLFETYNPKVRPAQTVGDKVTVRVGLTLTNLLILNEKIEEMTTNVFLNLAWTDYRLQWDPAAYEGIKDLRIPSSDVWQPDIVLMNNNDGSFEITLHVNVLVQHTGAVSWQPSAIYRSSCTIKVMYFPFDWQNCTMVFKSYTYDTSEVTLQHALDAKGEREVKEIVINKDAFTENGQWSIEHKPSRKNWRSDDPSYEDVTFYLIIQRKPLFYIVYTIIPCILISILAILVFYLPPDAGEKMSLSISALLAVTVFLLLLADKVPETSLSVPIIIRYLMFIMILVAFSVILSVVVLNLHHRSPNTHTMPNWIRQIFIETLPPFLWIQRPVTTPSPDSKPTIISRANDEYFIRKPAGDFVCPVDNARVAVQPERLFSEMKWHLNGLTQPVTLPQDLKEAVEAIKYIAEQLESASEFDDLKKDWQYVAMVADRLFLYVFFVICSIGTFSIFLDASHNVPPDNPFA
Sequence (P02718 whole entry): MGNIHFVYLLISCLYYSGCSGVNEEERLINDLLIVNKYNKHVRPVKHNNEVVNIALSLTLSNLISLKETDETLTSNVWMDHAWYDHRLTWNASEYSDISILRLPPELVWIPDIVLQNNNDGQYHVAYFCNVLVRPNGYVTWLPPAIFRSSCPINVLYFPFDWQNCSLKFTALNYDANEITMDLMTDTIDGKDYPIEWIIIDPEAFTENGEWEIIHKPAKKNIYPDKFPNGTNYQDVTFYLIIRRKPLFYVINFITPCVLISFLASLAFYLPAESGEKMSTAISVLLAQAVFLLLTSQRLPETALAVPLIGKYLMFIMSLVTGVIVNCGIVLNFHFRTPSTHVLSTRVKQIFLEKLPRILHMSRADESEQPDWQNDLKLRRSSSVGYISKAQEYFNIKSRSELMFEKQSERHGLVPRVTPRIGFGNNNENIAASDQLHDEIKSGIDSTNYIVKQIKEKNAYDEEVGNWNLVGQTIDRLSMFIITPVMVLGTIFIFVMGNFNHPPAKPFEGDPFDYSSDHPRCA
Sequence (P02714 whole entry): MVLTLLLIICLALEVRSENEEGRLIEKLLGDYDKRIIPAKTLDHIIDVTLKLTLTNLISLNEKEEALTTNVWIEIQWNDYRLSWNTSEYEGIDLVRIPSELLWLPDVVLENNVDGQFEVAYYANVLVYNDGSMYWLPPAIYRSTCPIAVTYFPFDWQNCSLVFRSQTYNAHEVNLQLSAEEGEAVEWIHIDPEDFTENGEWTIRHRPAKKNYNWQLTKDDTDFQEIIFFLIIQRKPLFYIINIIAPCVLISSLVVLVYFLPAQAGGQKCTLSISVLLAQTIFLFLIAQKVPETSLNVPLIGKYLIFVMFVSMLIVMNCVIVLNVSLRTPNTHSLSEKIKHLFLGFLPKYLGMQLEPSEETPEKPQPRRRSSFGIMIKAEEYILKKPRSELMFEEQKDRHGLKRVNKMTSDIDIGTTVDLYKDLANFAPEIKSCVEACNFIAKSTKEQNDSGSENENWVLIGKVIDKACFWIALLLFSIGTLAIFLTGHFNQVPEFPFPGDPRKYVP
pIC50: −log10 of the molar value.
propertyName: pIC50

- C[C@H](c1ccccc1)n1cncc1C(=O)OCCC1(C)N=N1: 4.64

---

target: GABA-A receptor; alpha-1/beta-2/gamma-2 (Homo sapiens) (UniProt P14867+P47870+P18507); experiment: Maximum response for enhancement of currents elicited by GABA at EC5 (6-12 uM); assay type: functional
Below, each entry is listed alongside its reported Max response.
propertyName: Max response (%)

* CCOC(=O)c1cncn1[C@@H](C)c1ccccc1 [S-ETOMIDATE] | 110
* C[C@H](c1ccccc1)n1cncc1C(=O)OCCC1(C)N=N1 | 94
* CCOC(=O)c1cncn1[C@H](C)c1ccccc1 [ETOMIDATE] | 110
* C[C@@H](c1ccccc1)n1cncc1C(=O)OCCC1(C)N=N1 | 94

---

target: GABA-A receptor; alpha-1/beta-2/gamma-2 (Homo sapiens, UniProt P14867+P18507+P47870); assay: Enhancement of currents elicited by GABA at EC5 (6-12 uM); format: functional
Sequence (P14867 whole entry): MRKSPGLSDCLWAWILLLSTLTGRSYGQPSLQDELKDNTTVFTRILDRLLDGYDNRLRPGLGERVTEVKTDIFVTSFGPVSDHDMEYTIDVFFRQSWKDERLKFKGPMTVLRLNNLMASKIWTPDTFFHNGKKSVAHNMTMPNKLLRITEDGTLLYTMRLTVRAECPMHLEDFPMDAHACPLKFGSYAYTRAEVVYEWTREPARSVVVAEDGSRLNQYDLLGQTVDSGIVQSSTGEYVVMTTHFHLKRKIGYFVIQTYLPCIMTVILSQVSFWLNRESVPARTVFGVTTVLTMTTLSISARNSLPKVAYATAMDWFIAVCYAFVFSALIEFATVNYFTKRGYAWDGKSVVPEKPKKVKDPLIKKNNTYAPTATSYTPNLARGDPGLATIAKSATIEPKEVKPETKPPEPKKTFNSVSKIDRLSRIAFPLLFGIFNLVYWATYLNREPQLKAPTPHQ
Sequence (P47870 whole entry): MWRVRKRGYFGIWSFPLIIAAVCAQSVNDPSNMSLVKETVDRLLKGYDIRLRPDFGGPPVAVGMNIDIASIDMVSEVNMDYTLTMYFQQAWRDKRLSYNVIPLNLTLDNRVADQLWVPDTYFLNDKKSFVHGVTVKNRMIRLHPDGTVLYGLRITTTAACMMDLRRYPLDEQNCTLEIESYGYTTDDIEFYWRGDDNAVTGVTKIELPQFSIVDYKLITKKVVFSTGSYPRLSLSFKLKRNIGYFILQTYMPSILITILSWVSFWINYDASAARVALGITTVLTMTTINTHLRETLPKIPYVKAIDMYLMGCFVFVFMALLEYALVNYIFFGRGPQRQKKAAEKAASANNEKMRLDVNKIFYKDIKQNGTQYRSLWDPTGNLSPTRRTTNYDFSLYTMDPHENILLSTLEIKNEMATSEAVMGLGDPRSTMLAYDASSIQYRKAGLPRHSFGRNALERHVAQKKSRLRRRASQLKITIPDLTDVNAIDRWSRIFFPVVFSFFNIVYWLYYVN
Sequence (P18507 whole entry): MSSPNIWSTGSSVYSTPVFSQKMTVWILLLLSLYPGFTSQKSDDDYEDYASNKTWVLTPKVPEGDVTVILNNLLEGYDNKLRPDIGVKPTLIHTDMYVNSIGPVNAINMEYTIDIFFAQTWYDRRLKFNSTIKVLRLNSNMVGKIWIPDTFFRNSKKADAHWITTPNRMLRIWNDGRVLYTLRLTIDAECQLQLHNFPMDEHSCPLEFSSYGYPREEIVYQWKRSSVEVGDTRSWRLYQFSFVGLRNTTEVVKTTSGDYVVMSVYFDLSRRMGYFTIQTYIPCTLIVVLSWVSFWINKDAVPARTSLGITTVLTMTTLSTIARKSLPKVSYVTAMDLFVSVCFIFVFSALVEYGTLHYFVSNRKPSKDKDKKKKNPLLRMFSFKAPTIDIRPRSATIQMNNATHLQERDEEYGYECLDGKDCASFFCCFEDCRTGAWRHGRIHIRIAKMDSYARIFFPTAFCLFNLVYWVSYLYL
pEC50: −log10 of the molar value.
Below, each entry is listed alongside its reported pEC50.
propertyName: pEC50

- C[C@@H](c1ccccc1)n1cncc1C(=O)OCCC1(C)N=N1: 4.70
- C[C@H](c1ccccc1)n1cncc1C(=O)OCCC1(C)N=N1: 5.70

---

target: GABA-A receptor; alpha-1/beta-2/gamma-2 (Homo sapiens, UniProt P14867+P18507+P47870); test: Direct activation of Gamma-aminobutyric acid A receptor in the absence of GABA; format: functional
propertyName: EC50 (µM)

* C[C@H](c1ccccc1)n1cncc1C(=O)OCCC1(C)N=N1 | 37

---

target: GABA-A receptor; alpha-1/beta-2/gamma-2 (Homo sapiens) (UniProt P14867+P47870+P18507); test: Hill coefficient for enhancement of currents elicited by GABA at EC5 (6-12 uM); format: functional
Below, each entry is listed alongside its reported nH.
propertyName: nH

* C[C@@H](c1ccccc1)n1cncc1C(=O)OCCC1(C)N=N1 | 1.6
* CCOC(=O)c1cncn1[C@H](C)c1ccccc1 [ETOMIDATE] | 1.2
* C[C@H](c1ccccc1)n1cncc1C(=O)OCCC1(C)N=N1 | 1.5
* CCOC(=O)c1cncn1[C@@H](C)c1ccccc1 [S-ETOMIDATE] | 1.9

---

assay: Anesthetic potency, Concentration for loss of righting reflexes (LORR) in Xenopus tadpoles; type: functional, frog
Below, each entry is listed alongside its reported EC50.
propertyName: EC50 (µM)

* C[C@H](c1ccccc1)n1cncc1C(=O)OCCC1(C)N=N1 | 2.2
* CCOC(=O)c1cncn1[C@H](C)c1ccccc1 [ETOMIDATE] | 2.3
* C[C@@H](c1ccccc1)n1cncc1C(=O)OCCC1(C)N=N1 | 14

---

biological target: GABA-A receptor; alpha-1/beta-2/gamma-2 (Homo sapiens, UniProt P14867+P18507+P47870); assay: Ability to enhance currents from alpha-1-beta-2-gamma-2L-subunit of GABA receptor elicited by low concentrations of GABA; format: functional
propertyName: EC50 (nM)

* C[C@H](c1ccccc1)n1cncc1C(=O)OCCC1(C)N=N1 | 1200
